- Tested on: bamyardgrass
- assayDetails: Test B flood test barnyardgrass
- Format: in vivo, Echinochloa crus-galli
- conditionContext: flood test, listed under Postemergence, Rate 250 g/ha; scale 0 to 10, 0 no effect, 10 complete control
- Experimental: At the same time, these crop and weed species were also treated with postemergence applications of test chemicals formulated in the same manner. Plants ranged in height from 2 to 18 cm (1- to 4-leaf stage) for postemergence treatments. […] Treated plants and controls were maintained in a greenhouse for twelve to sixteen days, after which all species were compared to controls and visually evaluated. […]
Kindly supply the reported Barnyardgrass plant response rating values for the records listed here.

Before answering, review these 3 worked examples.
Cc1ccccc1Cn1c(=O)on(C(=O)N(c2ccc(F)cc2F)C(C)C)c1=O [Compound 87] = 0
CC(C)N(C(=O)n1oc(=O)n(C2CCCCC2)c1=O)c1ccc(F)cc1F [Compound 115] = 0
Cc1cccc(C)c1-n1c(=O)on(C(=O)N(c2ccc(F)cc2)C(C)C)c1=O [Compound 18] = 9

# get_value(readout='Barnyardgrass plant response rating', item= COc1cccc(C)c1-n1c(=O)on(C(=O)N(c2ccc(F)cc2F)C(C)C)c1=O [Compound 74] ) 0

====

- Tested on: crabgrass
- assayDetails: Test B pre/postemergence crabgrass
- Assay type: in vivo, Digitaria sanguinalis
- conditionContext: Rate 500 g/ha, Postemergence; scale 0 to 10
Kindly supply the reported Crabgrass plant response rating values for the records listed here.
Give bare numbers.

Before answering, review these 5 worked examples.
CSc1ccc(N(C(=O)n2oc(=O)n(-c3ccccc3C)c2=O)C(C)C)cc1 = 1
Cc1ccccc1-n1c(=O)on(C(=O)N(c2ccc(Cl)cc2Cl)C(C)C)c1=O = 1
C#CCn1c(=O)on(C(=O)N(c2ccc(F)cc2)C(C)C)c1=O = 9
CCCn1c(=O)on(C(=O)N(c2ccc(F)cc2F)C(C)C)c1=O = 9
CC(C)N(C(=O)n1oc(=O)n([C@H](C)c2ccccc2)c1=O)c1ccc(F)cc1 = 9

Query molecule follows.
# get_value(readout='Crabgrass plant response rating', item= C=CCn1c(=O)on(C(=O)N(c2ccc(F)cc2F)C(C)C)c1=O ) 9

====

- Tested on: cocklebur
- assayDetails: Test B pre/postemergence cocklebur
- Assay type: in vivo, Xanthium strumarium
- conditionContext: Rate 500 g/ha, Postemergence; scale 0 to 10
Kindly supply the reported Cocklebur plant response rating values for the records listed here.

Before answering, review these 3 worked examples.
Cc1ccccc1-n1c(=O)on(C(=O)N(c2ccc(Br)cc2)C(C)C)c1=O [Compound 175] = 3
CCc1cccc(C)c1-n1c(=O)on(C(=O)N(c2ccc(F)cc2)C(C)C)c1=O [Compound 201] = 0
Cc1ccccc1-n1c(=O)on(C(=O)N(c2ccc(Cl)cc2Cl)C(C)C)c1=O [Compound 185] = 2

Query compound follows.
# get_value(readout='Cocklebur plant response rating', item= CC(C)N(C(=O)n1oc(=O)n(C(C)C)c1=O)c1ccc(F)cc1 [Compound 131] ) 5

====

- System: blackgrass
- assayDetails: Test B pre/postemergence blackgrass
- Format: in vivo, Alopecurus myosuroides
- conditionContext: Postemergence, Rate 125 g/ha; scale of 0 to 10 where 0 is no effect and 10 is complete control
Kindly supply the reported Blackgrass plant response rating values for the records listed here.

Before answering, review these 4 worked examples.
CC(C)N(C(=O)n1oc(=O)n(Cc2ccccc2Cl)c1=O)c1ccc(F)cc1 [Compound 140] = 3
COC(=O)C(CCO)n1c(=O)on(C(=O)N(c2ccc(F)cc2)C(C)C)c1=O (stereo not drawn) [Compound 680] = 0
Cc1nc(C(C)n2c(=O)on(C(=O)N(c3ccc(F)cc3)C(C)C)c2=O)sc1C (stereo not drawn) [Compound 757] = 0
CC(C)N(C(=O)n1oc(=O)n(C[C@H](C)Cl)c1=O)c1ccccc1 [Compound 747] = 7

Each compound below has a reported value. Please supply its Blackgrass plant response rating.
1. CC(C)N(C(=O)n1oc(=O)n(CC(F)F)c1=O)c1ccc(F)cc1 [Compound 710]
2. Cc1nn(C)c(Cl)c1-n1c(=O)on(C(=O)N(c2ccc(F)cc2F)C(C)C)c1=O [Compound 96]
3. CC(C)N(C(=O)n1oc(=O)n(C2CCCCC2)c1=O)c1ccc(F)cc1F [Compound 115]
4. C#CC(C)n1c(=O)on(C(=O)N(c2ccc(Cl)cc2)C(C)C)c1=O (racemic) [Compound 658]
5. CC(C)N(C(=O)n1oc(=O)n(CCCCl)c1=O)c1ccc(Cl)cc1 [Compound 749]
6. CCCn1c(=O)on(C(=O)N(c2ccc(F)cc2)C(C)C)c1=O [Compound 91]
7. CC[C@H](C)n1c(=O)on(C(=O)N(c2ccc(Cl)cc2)C(C)C)c1=O [Compound 664]
8. C#CCn1c(=O)on(C(=O)N(c2ccccc2)C(C)C)c1=O [Compound 754]

6
0
4
3
5
8
7
4

====

Kindly supply the reported Velvetleaf plant response rating values for the records listed here.
- Test system: velvetleaf
- assayDetails: Test B pre/postemergence velvetleaf
- Assay type: in vivo, Abutilon theophrasti
- conditionContext: Preemergence, Rate 250 g/ha; scale of 0 to 10 where 0 is no effect and 10 is complete control

Before answering, review these 6 worked examples.
CCC(CC)n1c(=O)on(C(=O)N(c2ccccc2)C(C)C)c1=O = 6
CCN(C(=O)n1oc(=O)n(C2CCCCC2)c1=O)C1CCCCC1 = 0
Cc1nsc(Cl)c1Cn1c(=O)on(C(=O)N(c2ccccc2)C(C)C)c1=O = 0
Cc1ccccc1-n1c(=O)on(C(=O)N(c2ccc(OC(F)(F)F)cc2)C(C)C)c1=O = 0
CC(C)N(C(=O)n1oc(=O)n(N(C)C)c1=O)c1ccccc1 = 6
COc1cc(C)cc(C)c1-n1c(=O)on(C(=O)N(c2ccc(F)cc2F)C(C)C)c1=O = 0

Query compound follows.
Give recorded Velvetleaf plant response rating with velvetleaf for the following compound: Cc1ccc(N(C(=O)n2oc(=O)n(-c3ccc4ccccc4c3)c2=O)C(C)C)cc1 0

====

Kindly supply the reported Plant response rating, Blackgrass values for the records listed here.
- Test system: blackgrass
- assayDetails: Test B pre/postemergence blackgrass
- Type: in vivo, Alopecurus myosuroides
- conditionContext: Postemergence, Rate 125 g/ha; scale 0 to 10, 0 is no effect, 10 is complete control
One number for each entry.

Before answering, review these 4 worked examples.
CC(C)N(C(=O)n1oc(=O)n(-c2ccc3ccccc3c2)c1=O)c1ccc(Cl)cc1 [Compound 333] = 0
CC1CC1n1c(=O)on(C(=O)N(c2ccc(Cl)cc2)C(C)C)c1=O (centres unmarked) [Compound 369] = 0
CC(C)N(C(=O)n1oc(=O)n(-c2ccc3ccccc3c2)c1=O)c1ccc(F)cc1 [Compound 329] = 0
CC(C)C(C)n1c(=O)on(C(=O)N(c2ccccc2)C(C)C)c1=O (centres unmarked) [Compound 355] = 3

Query molecule follows.
# get_value(readout='Plant response rating, Blackgrass', item= Cc1c(-n2c(=O)on(C(=O)N(c3ccccc3)C(C)C)c2=O)ccc2ccccc12 [Compound 344] ) 0

====

- Tested on: pigweed
- assayDetails: Test B pre/postemergence pigweed
- Assay type: in vivo, Amaranthus retroflexus
- conditionContext: Postemergence, Rate 250 g/ha; scale 0 to 10, 0 no effect, 10 complete control
propertyMeasured: Redroot pigweed plant response rating
Numbers only.

CCN(C(=O)n1oc(=O)n(-c2c(C)cccc2C)c1=O)C1CCCCC1 [Compound 27] = 0

Each compound below has a reported value. Please supply its Redroot pigweed plant response rating.
1. Cc1c(Cl)cccc1-n1c(=O)on(C(=O)N(c2ccc(F)cc2)C(C)C)c1=O [Compound 21]
2. Cc1ccccc1-n1c(=O)on(C(=O)N(c2ccc([N+](=O)[O-])cc2)C(C)C)c1=O [Compound 44]
3. Cc1ccccc1-n1c(=O)on(C(=O)N(c2ccc(C(F)(F)F)cc2)C(C)C)c1=O [Compound 39]
4. Cc1cccc(Cl)c1-n1c(=O)on(C(=O)N(c2ccc(F)cc2)C(C)C)c1=O [Compound 53]

1: 0; 2: 0; 3: 0; 4: 6

====

- Test system: giant foxtail
- assayDetails: Test B pre/postemergence giant foxtail
- Type: in vivo, Setaria faberii
- conditionContext: Preemergence, Rate 62 g/ha; scale of 0 to 10 where 0 is no effect and 10 is complete control
Kindly supply the reported Giant foxtail plant response rating values for the records listed here.
Give bare numbers.

Cc1ccccc1-n1c(=O)on(C(=O)N(c2ccc(Br)cc2)C(C)C)c1=O = 5

Each compound below has a reported value. Please supply its Giant foxtail plant response rating.
1. CC(C)N(C(=O)n1oc(=O)n(C(C)C=O)c1=O)c1ccccc1 (centres unmarked)
2. CC(C)N(C(=O)n1oc(=O)n(CC2CCCCO2)c1=O)c1ccc(F)cc1F (centres unmarked)
3. COc1cc(C)cc(C)c1-n1c(=O)on(C(=O)N(c2ccc(F)cc2F)C(C)C)c1=O
4. C=CCn1c(=O)on(C(=O)N(CC)C2CCCCC2)c1=O
5. CC(=O)Cn1c(=O)on(C(=O)N(c2ccc(F)cc2)C(C)C)c1=O
6. C=CCn1c(=O)on(C(=O)N(c2ccc(Cl)cc2)C(C)C2CC2)c1=O (centres unmarked)
7. C#CC(C)n1c(=O)on(C(=O)N(c2ccc(Cl)cc2)C(C)C)c1=O (racemic)

0
10
7
6
6
3
9
